Source: patent US10082496B2

tested on: DLD-1; assay: In vitro APC inhibition assay (MTT), DLD-1; assay type: cell-based; settings: Homo sapiens, DLD-1, DLD-1 (truncated APC)
Hi there, I'd appreciate the recorded log10(IC50) for every entry that follows.
Remember, log10 of IC50, in nM.

Ask: Returns the measured log10(IC50) for the input compound. Input: C#CCC1CCN(C2CCN(S(=O)(=O)c3ccccc3N=[N+]=[N-])CC2)CC1
Reply: 3.72

Ask: Returns the measured log10(IC50) for the input compound. Input: C[N+]1(C2CCN(S(=O)(=O)c3cccc4ccccc34)CC2)CCCC1
Reply: 3.36

Ask: Returns the measured log10(IC50) for the input compound. Input: CC1CCN(C2CCN(S(=O)(=O)c3cccc(C(C)(C)C)c3)CC2)CC1
Reply: 2.67

Ask: Returns the measured log10(IC50) for the input compound. Input: C#CCC1CCN(C2CCN(S(=O)(=O)c3ccc(N=[N+]=[N-])cc3)CC2)CC1
Reply: 2.37

Ask: Returns the measured log10(IC50) for the input compound. Input: O=S(=O)(c1cccc2ccccc12)N1CCC(N2CCCC2)CC1
Reply: 3.59

Ask: Returns the measured log10(IC50) for the input compound. Input: C#CCC1CCN(C2CCN(S(=O)(=O)c3cccc(N=[N+]=[N-])c3)CC2)CC1
Reply: 3.28

Ask: Returns the measured log10(IC50) for the input compound. Input: CCCCC#Cc1cc(S(=O)(=O)N2CCC(N3CCC(C)CC3)CC2)ccc1OC(F)(F)F
Reply: 2.17

Ask: Returns the measured log10(IC50) for the input compound. Input: C#CCC1CCN(C2CCN(S(=O)(=O)c3ccc(C(=O)c4ccccc4)cc3)CC2)CC1
Reply: 0.68
